# Target: VLP2 (virus-like particles, capsid protein particles of AAV serotype 2) (AAV serotype 2 (AAV2)) (UniProt P03135)
# Sequence (P03135 whole entry): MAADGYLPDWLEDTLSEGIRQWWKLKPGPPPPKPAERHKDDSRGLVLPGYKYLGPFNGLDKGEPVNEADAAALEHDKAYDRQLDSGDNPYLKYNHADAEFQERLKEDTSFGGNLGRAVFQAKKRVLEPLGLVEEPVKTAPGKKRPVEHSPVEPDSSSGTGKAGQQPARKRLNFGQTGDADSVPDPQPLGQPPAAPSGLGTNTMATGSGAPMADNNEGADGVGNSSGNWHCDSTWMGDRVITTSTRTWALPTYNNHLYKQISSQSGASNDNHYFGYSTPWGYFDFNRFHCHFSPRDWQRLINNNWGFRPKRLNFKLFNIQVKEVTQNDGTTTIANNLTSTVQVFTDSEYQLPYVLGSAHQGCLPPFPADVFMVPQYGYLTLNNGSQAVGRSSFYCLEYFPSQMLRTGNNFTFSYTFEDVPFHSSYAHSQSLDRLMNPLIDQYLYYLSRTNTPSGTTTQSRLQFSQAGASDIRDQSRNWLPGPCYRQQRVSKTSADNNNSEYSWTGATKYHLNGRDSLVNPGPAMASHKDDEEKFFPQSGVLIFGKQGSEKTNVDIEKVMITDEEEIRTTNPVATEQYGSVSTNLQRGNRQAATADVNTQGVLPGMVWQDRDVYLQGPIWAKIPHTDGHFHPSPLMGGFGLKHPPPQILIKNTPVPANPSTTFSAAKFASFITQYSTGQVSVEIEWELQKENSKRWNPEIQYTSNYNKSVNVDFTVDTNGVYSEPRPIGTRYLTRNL
# Method Notes: ELISA on immobilised VLP2 (purified protein, 5 µg/mL); A450 after 1:1 1 M NaOH with 1 mM CaCl2, 30°C, 60 min divided by A450 at 0 time
Measurement Name: Remaining activity [%] (%)
All answers are understood in %, so give the number only.

{"Binder": "AVR25c (AVR25a with K467N) (receptor) MGSAGESDQITLPKHEAQLKVYVLLVPPKGEASTYDWQLITHPRDYSGEMEGEHSQILKLSNLTPGLYEYRAVVEGQNAHSEGYVNVTVEPGPRKNRPPIAIVSPQFQEISLPTTSAVIDGSQSTDDDKIVQYHWEELKGPLREEKISEDTPILKLSNLVPGNYTFRLTVVDTDGATDSTTADLTVNKAVDHHHHHH", "Unit Of Measurement": "%", "Value": 2.19}
{"Binder": "AVR28 (AVR25c with I366F, V394A, K455R) (receptor) MGSAGESDQITLPKHEAQLKVYVLLVPPKGEASTYDWQLITHPRDYSGEMEGEHSQFLKLSNLTPGLYEYRAVVEGQNAHSEGYANVTVEPGPRKNRPPIAIVSPQFQEISLPTTSAVIDGSQSTDDDKIVQYHWEELKGPLREERISEDTPILKLSNLVPGNYTFRLTVVDTDGATDSTTADLTVNKAVDHHHHHH", "Unit Of Measurement": "%", "Value": 6.29}
{"Binder": "AVR29c (AVR25c with I366F, V394A, K455R, K497E) (receptor) MGSAGESDQITLPKHEAQLKVYVLLVPPKGEASTYDWQLITHPRDYSGEMEGEHSQFLKLSNLTPGLYEYRAVVEGQNAHSEGYANVTVEPGPRKNRPPIAIVSPQFQEISLPTTSAVIDGSQSTDDDKIVQYHWEELKGPLREERISEDTPILKLSNLVPGNYTFRLTVVDTDGATDSTTADLTVNEAVDHHHHHH", "Unit Of Measurement": "%", "Value": 15.7}

stdin: Can you look up the measured Remaining activity [%] of AVR31 (AVR25c with G314D, I366F, V394A, K455R, K497E, V499I) (receptor) MGSADESDQITLPKHEAQLKVYVLLVPPKGEASTYDWQLITHPRDYSGEMEGEHSQFLKLSNLTPGLYEYRAVVEGQNAHSEGYANVTVEPGPRKNRPPIAIVSPQFQEISLPTTSAVIDGSQSTDDDKIVQYHWEELKGPLREERISEDTPILKLSNLVPGNYTFRLTVVDTDGATDSTTADLTVNEAIDHHHHHH for me?
stdout: 10.6
